- tested.on: Glutamate receptor ionotropic, kainate 1 (Homo sapiens)
- Sequence (P39086 whole entry): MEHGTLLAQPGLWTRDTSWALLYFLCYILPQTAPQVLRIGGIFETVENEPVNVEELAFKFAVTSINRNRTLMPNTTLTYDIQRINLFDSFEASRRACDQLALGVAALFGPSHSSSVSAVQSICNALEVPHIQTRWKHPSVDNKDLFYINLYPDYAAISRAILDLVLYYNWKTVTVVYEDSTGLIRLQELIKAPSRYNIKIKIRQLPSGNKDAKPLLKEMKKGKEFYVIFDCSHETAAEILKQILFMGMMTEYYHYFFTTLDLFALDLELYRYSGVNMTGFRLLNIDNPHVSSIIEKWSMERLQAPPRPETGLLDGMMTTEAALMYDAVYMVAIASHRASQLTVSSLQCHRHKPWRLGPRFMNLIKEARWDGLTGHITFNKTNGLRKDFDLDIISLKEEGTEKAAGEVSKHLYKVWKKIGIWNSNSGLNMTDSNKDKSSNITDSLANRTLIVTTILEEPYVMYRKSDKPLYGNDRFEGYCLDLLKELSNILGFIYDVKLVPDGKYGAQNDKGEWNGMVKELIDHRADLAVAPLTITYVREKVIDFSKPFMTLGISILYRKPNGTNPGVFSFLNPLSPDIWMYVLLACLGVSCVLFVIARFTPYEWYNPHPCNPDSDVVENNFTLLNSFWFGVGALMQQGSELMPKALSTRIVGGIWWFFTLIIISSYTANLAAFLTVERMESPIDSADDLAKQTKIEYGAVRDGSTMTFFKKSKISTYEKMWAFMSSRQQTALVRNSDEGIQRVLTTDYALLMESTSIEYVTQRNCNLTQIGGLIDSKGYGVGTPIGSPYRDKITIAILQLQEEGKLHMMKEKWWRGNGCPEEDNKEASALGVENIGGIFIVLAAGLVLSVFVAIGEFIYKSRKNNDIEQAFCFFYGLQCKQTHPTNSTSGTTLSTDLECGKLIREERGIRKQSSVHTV
- assay.remarks: Binding affinity to GluK1 receptor (unknown origin)
pKi: −log10 of the molar value.
Listed here: items and their measured pKi.
property: pKi

compound.structure	property	censoring.sign	value.reported
O=C(Nn1c(=O)c(=O)[nH]c2cc(C#CCCO)ccc21)c1ccccc1	pKi	=	4.90
O=C(Nn1c(=O)c(=O)[nH]c2cc(C(F)(F)F)c(F)cc21)c1ccccc1O	pKi	=	5.95
O=C(O)Cc1cccc(-c2ccc3[nH]c(=O)c(=O)[nH]c3c2)c1	pKi	<	4.00
O=c1[nH]c2ccc(CCP(=O)(O)O)cc2[nH]c1=O	pKi	<	4.00
N[C@@H](Cc1ccc2[nH]c(=O)c(=O)[nH]c2c1)C(=O)O	pKi	<	4.00
O=c1[nH]c2ccc(CCCP(=O)(O)O)cc2[nH]c1=O	pKi	<	4.00
O=C(O)c1cc(-c2ccc3[nH]c(=O)c(=O)[nH]c3c2)ccc1Cl	pKi	=	5.92
N[C@@H](CCc1ccc2[nH]c(=O)c(=O)[nH]c2c1)C(=O)O	pKi	=	4.79
O=C(O)c1ccccc1/C=C/c1ccc2[nH]c(=O)c(=O)[nH]c2c1	pKi	=	5.85
O=c1[nH]c2ccc(-c3cccc(P(=O)(O)O)c3)cc2[nH]c1=O	pKi	=	4.92
O=c1[nH]c2ccc(/C=C/CP(=O)(O)O)cc2[nH]c1=O	pKi	<	4.00
O=C(O)CNS(=O)(=O)c1ccc2nc(O)c(O)nc2c1	pKi	<	4.00
Cc1ccc(C(=O)O)cc1-c1ccc2[nH]c(=O)c(=O)[nH]c2c1	pKi	=	5.89
O=C(Nn1c(=O)c(=O)[nH]c2cc(C#Cc3ccccc3)ccc21)c1ccccc1	pKi	<	4.00
